# system-under-test: human OX2R (Homo sapiens, UniProt O43614)
# Construct: expressed in transfected cells; host or cells: CHO (Chinese hamster ovary) cells, line CHOOX2R, co-expressing NFAT-luciferase
# Sequence (O43614 whole entry): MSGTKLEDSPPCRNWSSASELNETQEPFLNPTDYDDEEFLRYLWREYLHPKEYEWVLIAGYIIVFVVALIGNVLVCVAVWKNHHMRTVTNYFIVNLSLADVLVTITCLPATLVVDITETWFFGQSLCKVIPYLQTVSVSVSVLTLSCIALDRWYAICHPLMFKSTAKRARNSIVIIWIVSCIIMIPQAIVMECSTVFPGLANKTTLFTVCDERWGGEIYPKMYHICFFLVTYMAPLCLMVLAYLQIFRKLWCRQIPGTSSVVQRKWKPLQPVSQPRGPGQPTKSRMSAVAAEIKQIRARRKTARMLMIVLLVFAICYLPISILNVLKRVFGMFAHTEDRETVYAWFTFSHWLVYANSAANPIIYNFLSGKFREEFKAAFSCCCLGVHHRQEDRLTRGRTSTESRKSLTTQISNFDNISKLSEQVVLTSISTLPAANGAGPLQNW
# protocol-summary: Agonist activity against OX2R: intracellular calcium (Fura-2AM, FDSS7000) in CHOOX2R cells
# Assay type: cell-based
# stated-conditions: 10 μM test compound; relative to orexin-A as full agonist (100%)
measured-endpoint: Response (%) OX2R

INSERT INTO measurements (compound, result_value) VALUES
  ('COc1ccc(-c2cccc(C(=O)N(C)C)c2)cc1S(=O)(=O)Nc1cccc(NC(=O)c2ccccc2Br)c1', 74),
  ('COc1ccc(-c2cccc(C(=O)N(C)C)c2)cc1S(=O)(=O)Nc1cccc(NC(=O)Nc2ccc(NC(=N)NC(=O)OC(C)(C)C)cc2)c1', 52),
  ('COc1ccc(-c2cccc(C(=O)N(C)C)c2)cc1S(=O)(=O)Nc1cccc(NCc2ccccc2C)c1', 93),
  ('COC(=O)c1cccc(NC(=O)Nc2cccc(NS(=O)(=O)c3cc(-c4cccc(C(=O)N(C)C)c4)ccc3OC)c2)c1', 100);
